B1: CPEB3 Ribozyme (parent)
chain: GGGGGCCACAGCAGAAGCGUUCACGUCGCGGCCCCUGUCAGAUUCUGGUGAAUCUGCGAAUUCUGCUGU

# Variants of: B1
# Assay procedure: self-cleavage, relative activity (ratio to wild type); higher = more cleavage; co-transcriptional

| Variant identifier | self-cleavage |
| --- | --- |
| U44G U46C | 0.928 |
| G50C C63U | 0.97 |
| G30U U44G | 0.308 |
| A10U G47U | 0.962 |
| G11C G47U | 0.916 |
| G5A U69C | 1.05 |
| A8C C34U | 0.972 |
| C29U U62G | 0.21 |
| C12G U61A | 0.537 |
| G11U C39U | 0.527 |
| G11C G25C | 0.177 |
| G48C A51G | 0.995 |
| G19C U26C | 0.153 |
| U43G G50U | 0.952 |
| G25A U69C | 0.36 |
| G25C U46A | 0.18 |
| G4A G14C | 0.305 |
| C32G U64G | 0.253 |
| G31C A60G | 0.226 |
| C12U G58U | 0.991 |
| G1A G47C | 0.0423 |
| G17U C22A | 0.132 |
| C34G U43G | 0.383 |
| C7G C32G | 0.106 |
| G1C G31C | 0.0643 |
| G4U C12U | 0.819 |
| C22A C54G | 0.2 |
| G48U G58A | 0.963 |
| U67A U69A | 0.996 |
| G1A U36C | 0.0487 |
| G1C G37U | 0.101 |
| G37C G47A | 0.189 |
| G5C C24G | 0.0631 |
| G31A A40G | 0.771 |
| G1A G56C | 0.0841 |
| U20G C39G | 0.23 |
| U20G G37A | 0.173 |
| U36A C57G | 0.231 |
